Assay: PET hydrolysis, aromatic products released after 48 h (umol product/mg enzyme); higher = more PET depolymerization activity
Conditions: substrate: cryPow; 40 °C; pH 8.5
Entries annotated with measured PET hydrolysis

| seq text | PET hydrolysis |
| --- | --- |
| QYQKGPDPTVAGLERDGTFAIRTTTVSRLSASGFGGGTIYYPTATGSYGVVAVSPGFTAYQSSISWIGSRLASHGFVVITIDTNTTSDQPDSRARQLKAALDKVVSLASSRTNVLYGKVDSSRLAVAGHSMGGGGSLAAARDYPSLKASVPLAPWHTTKSFSTVRVPTLIVGADGDTVASVTSHSIPFYTSIPSSTPKGYLELNNEDHFFPQDSGEYGLVGKYMISWFKRFVDSDTRYSPFLCGAPHQTQIANTLRVSDSRTNCPY [DP038] | 54 |

Enquiry: Please list PET hydrolysis recorded for the sequence APNAAIAAAPRVAPAANPYERGPAPTEESVKAEKGPFDIAQMPVPGGAGVFGGGTIWYPKDEAGPFGAVVVSPGFMTLEPLIQWYGRTLASHGFVVMTMATITPIDPPFSRGDELRSALDYLVTKSTVKDKIDPTRTALMGHSMGGGGTLDAASKLPDLKAAIPLAPWNLDYAPPAKIKAPTLIIGADNDPIAPTAAFADPFYAALTTQNRAYLKLKNAGHTFSFLGYNPTITKYTVSWLKRFVDNDTRYDQFLCPIPAASDTVAAYQGTCPLT [DP091]
Return: < 3

Enquiry: Check the records and state PET hydrolysis for ATTAAAPAAAVRADSPYQRGPAPTEASVTAARGPFAIAQVTVPAGSGTGFNKGTIYYPTDTGQGTFGGVAVMPGFTSPQSVIQWLGPRLASQGFLVFTLDSLSLVDFPTARSQQLLAALDYLATRSTVRTRLDPNRLAVMGHSMGGGASLWAAQNRPSLKASVPLAPWETDTTWQGVRVPTMIIGGQADTVAPPATMAIPDYTSMTSAPEKAYLELRNGGHGAPATESPTVAKYALSWLKRFVDLDTRYDQFLCPAPAPTTAISQYRDTCPNG [DP058]
Return: < 3
